Hello, the source for this data is patent US11401271B2, in case you need it.

# Test system: Spodoptera exigua
# protocol details: whole plant or invertebrate
# Assay type: in vivo
# recorded conditions: 500 ppm; 2nd-instar larvae, leaf immersion feeding
readout name: Spodoptera exigua Mortality (%)
Numbers only here, please. The scale is %.

Query: Write down Spodoptera exigua Mortality (%) measured for item COC(=O)CC1Nc2c([S+]([O-])C(F)(F)F)c(C(F)(F)F)nn2-c2cncc(Cl)c21 (stereo not shown) [b-88]
Result: 100

Query: Write down Spodoptera exigua Mortality (%) measured for item CNC(=O)CC1Nc2c(OC(F)(F)F)c(C#N)nn2-c2cncc(Cl)c21 (stereo not shown) [b-123]
Result: 95

Query: Write down Spodoptera exigua Mortality (%) measured for item COC(=O)C1(CC(N)=O)Nc2c([S+]([O-])C(F)(F)F)c(C#N)nn2-c2c(Cl)cc(C(F)(F)F)cc21 (stereo not drawn) [d-20]
Result: 100

Query: Write down Spodoptera exigua Mortality (%) measured for item COC(=O)CC1(C(=O)OC)Nc2c([S+]([O-])C(F)(F)F)c(C#N)nn2-c2ccc(C(F)(F)F)c(Cl)c21 (stereo not shown) [e-7]
Result: 100

* * *

For each of the compounds below, state its mortality at 100 ppm.
# System: Solenopsis invicta
# protocol details: whole plant or invertebrate
# Assay type: in vivo
# recorded conditions: Solenopsis invicta, 24 h, read-out: Solenopsis invicta Mortality (%) 100 ppm 24 h, 100 ppm; 24 h; water test tube poison-feeding
Numbers only here, please. The scale is %.

Query: Write down mortality at 100 ppm measured for item C=CC1(CCl)Nc2c([S+](C)[O-])c(C(C)=O)nn2-c2c(Cl)cc(C(F)(F)F)cc21 (stereo not drawn) [Compound C19]
Result: 18

Query: Write down mortality at 100 ppm measured for item Cc1cc(-c2c(C#N)nn3c2NC(C(O)CO)c2cc(C(F)(F)F)cc(Cl)c2-3)c(C)o1 (stereo not drawn) [Compound C52]
Result: 22

Query: Write down mortality at 100 ppm measured for item CC[S+]([O-])c1c(C#N)nn2c1NC(/C=C/C(=O)OC)(CC#N)c1cc(C(F)(F)F)cc(Cl)c1-2 (stereo not drawn) [Compound C59]
Result: 29

Query: Write down mortality at 100 ppm measured for item C=CC1(CC(F)(F)F)Nc2c([S+]([O-])C(F)(F)F)c(C#N)nn2-c2c(Cl)cc(C(F)(F)F)cc21 (stereo not drawn) [Compound C14]
Result: 30

Query: Write down mortality at 100 ppm measured for item C=CC1(CCl)Nc2c(Br)c(C#N)nn2-c2c(Cl)cc(C(F)(F)F)cc21 (stereo not drawn) [Compound C5]
Result: 34

Query: Write down mortality at 100 ppm measured for item C=CC1(CC#N)Nc2c([S+](C)[O-])c(C(C)=O)nn2-c2c(Cl)cc(C(F)(F)F)cc21 (stereo not drawn) [Compound C23]
Result: 18

Query: Write down mortality at 100 ppm measured for item CS(=O)(=O)Nc1cc2n(n1)-c1cnccc1C(F)(CC(F)(F)F)N2 (stereo not drawn) [Compound A42]
Result: 44

Query: Write down mortality at 100 ppm measured for item COc1ccc(-c2cn3c(c2C(C)=O)NC(C#N)(C#N)c2ccc([N+](=O)[O-])cc2-3)cc1 [Compound B3]
Result: 24

Query: Write down mortality at 100 ppm measured for item COC(=O)CC1(C(=O)OC)Nc2c([S+]([O-])C(F)(F)F)c(C#N)nn2-c2c(Cl)cc(C(F)(F)F)cc21 (stereo not drawn) [Compound C37]
Result: 20

Query: Write down mortality at 100 ppm measured for item CC1(C)Nc2c([S+]([O-])C(F)(F)F)c(C#N)nn2-c2ccccc21 (stereo not drawn) [Compound A8]
Result: 26

Query: Write down mortality at 100 ppm measured for item CC1(C)Nc2c(N)c(C#N)nn2-c2ccccc21 [Compound A15]
Result: 24

Query: Write down mortality at 100 ppm measured for item CC(=O)c1nn2c(c1[S+](C)[O-])NC(CC#N)(C(=O)O)c1cc(C(F)(F)F)cc(Cl)c1-2 (stereo not drawn) [Compound C43]
Result: 18

Query: Write down mortality at 100 ppm measured for item COc1ccc(-c2cn3c(c2C#N)NC(C#N)(C#N)c2ccc([N+](=O)[O-])cc2-3)cc1 [Compound B1]
Result: 20

Query: Write down mortality at 100 ppm measured for item CN(C)CC1(CC#N)Nc2c([S+]([O-])C(F)(F)F)c(C#N)nn2-c2c(Cl)cc(C(F)(F)F)cc21 (stereo not drawn) [Compound C29]
Result: 30

Query: Write down mortality at 100 ppm measured for item CC(=O)c1nn2c(c1Br)NC(C)(C)c1ccccc1-2 [Compound A5]
Result: 34

Query: Write down mortality at 100 ppm measured for item C=CC1(C=C)Nc2c(-c3cc(C)sc3C)c(CC)nn2-c2c(Cl)cc(C(F)(F)F)cc21 [Compound C62]
Result: 27

Query: Write down mortality at 100 ppm measured for item COC(=O)CC1(C(=O)OC)c2cc(C(F)(F)F)cc(Cl)c2-n2nc(C#N)c([S+]([O-])C(F)(F)F)c2N1C (stereo not drawn) [Compound C39]
Result: 24

Query: Write down mortality at 100 ppm measured for item CCNc1cc2n(n1)-c1cnccc1C(F)(CC(F)(F)F)N2 (stereo not drawn) [Compound A37]
Result: 20

Query: Write down mortality at 100 ppm measured for item CC(=O)c1nn2c(c1[S+](C)[O-])NC(CC(=O)O)(C(=O)O)c1cc(C(F)(F)F)cc(Cl)c1-2 (stereo not drawn) [Compound C47]
Result: 27

Query: Write down mortality at 100 ppm measured for item COc1ccc(-c2cn3c(c2C#N)N(C)C(C#N)(C#N)c2ccc([N+](=O)[O-])cc2-3)cc1 [Compound B2]
Result: 26

Query: Write down mortality at 100 ppm measured for item C=CC1Nc2c([S+]([O-])C(F)(F)F)c(C#N)nn2-c2c(Cl)cc(C(F)(F)F)cc21 (stereo not drawn) [Compound C16]
Result: 23

Query: Write down mortality at 100 ppm measured for item CC1(C)Nc2c(C#N)c(SCc3ccccc3)nn2-c2cnc(F)nc21 [Compound A46]
Result: 20

Query: Write down mortality at 100 ppm measured for item CC(C)(C)Nc1c(C#N)nn2c1NC(C)(C)c1ccccc1-2 [Compound A16]
Result: 20

Query: Write down mortality at 100 ppm measured for item N#Cc1nn2c(c1-c1ccccc1C(F)(F)F)NC(CCl)(C(O)CO)c1cc(C(F)(F)F)cc(Cl)c1-2 (stereo not drawn) [Compound C53]
Result: 28

Query: Write down mortality at 100 ppm measured for item N#Cc1nn2c(c1[S+]([O-])C(F)(F)F)NC(CC(N)=O)(C(N)=O)c1cc(C(F)(F)F)cc(Cl)c1-2 (stereo not drawn) [Compound C38]
Result: 25

Query: Write down mortality at 100 ppm measured for item CSc1nn2c(c1C#N)N(S(C)(=O)=O)C(F)(C(F)(F)F)c1ccccc1-2 (stereo not drawn) [Compound A33]
Result: 24

Query: Write down mortality at 100 ppm measured for item Nc1ccc2c(c1)-n1nc(C(F)(F)F)cc1NC2(C(F)(F)F)C(F)(F)F [Compound A10]
Result: 20
